B1: OR4K15 (parent)
chain: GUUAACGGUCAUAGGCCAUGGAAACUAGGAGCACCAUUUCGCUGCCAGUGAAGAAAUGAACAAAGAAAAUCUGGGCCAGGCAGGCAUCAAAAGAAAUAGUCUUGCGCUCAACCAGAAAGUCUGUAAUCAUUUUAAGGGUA

- Variants of: B1
- test-description: self-cleavage, relative activity (ratio to wild type); higher = more cleavage; in vitro, sequencing; the parent is a self-cleaving ribozyme
endpoint-label: self-cleavage
Answer with a number only.

// solved cases for self-cleavage follow
A13G U70C: 0.87
U102C G106A: 0.02
A4G U43G: 0.55
U9G A91U: 1.26
A11G U70A: 0.92
U70C A95G: 1.84
C76A U131C: 0.08

Now consider the entry below.
Recorded self-cleavage of A68G U100A , please.
0.24
